FYI, the data here is from patent US20110118447A1.

Exercise: state measured fold difference in affinity vs original for each of the binders provided.
assayedTarget: binding partner of C5A (XPA23)
assayMethodText: Biacore
Numbers only, in fold.

binder	fold difference in affinity vs original / fold
C5A (XPA23) VH P53A (antibody, V domains shown) VH: EVQLLESGGGLVQPGGSLRLSCAASGFTFSKYFMFWVRQAPGKGLEWVSVISASGGMTRYADSVKGRFTISRDNSKNTLYLQMNSLRAEDTAVYYCARVGYGGNSDYWGQGTLVTVSS VL: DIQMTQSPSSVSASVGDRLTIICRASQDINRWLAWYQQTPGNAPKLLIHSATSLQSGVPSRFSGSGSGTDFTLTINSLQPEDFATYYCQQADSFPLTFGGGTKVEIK	0.05

Items follow; give fold difference in affinity vs original for each.
1. C5A (XPA23) VH F33G (antibody, V domains shown) VH: EVQLLESGGGLVQPGGSLRLSCAASGFTFSKYGMFWVRQAPGKGLEWVSVISPSGGMTRYADSVKGRFTISRDNSKNTLYLQMNSLRAEDTAVYYCARVGYGGNSDYWGQGTLVTVSS VL: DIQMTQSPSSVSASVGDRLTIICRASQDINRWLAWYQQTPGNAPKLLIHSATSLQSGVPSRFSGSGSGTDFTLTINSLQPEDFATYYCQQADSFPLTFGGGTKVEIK
2. C5A (XPA23) VH V50T (antibody, V domains shown) VH: EVQLLESGGGLVQPGGSLRLSCAASGFTFSKYFMFWVRQAPGKGLEWVSTISPSGGMTRYADSVKGRFTISRDNSKNTLYLQMNSLRAEDTAVYYCARVGYGGNSDYWGQGTLVTVSS VL: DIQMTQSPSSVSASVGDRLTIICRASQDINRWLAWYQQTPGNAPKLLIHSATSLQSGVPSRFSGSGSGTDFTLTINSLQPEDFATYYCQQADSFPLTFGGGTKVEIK

// result
1. 0.76
2. 0.03
